Biological target: T1, human GIP receptor (human, UniProt P48546 22-466)
T1 sequence (looked up): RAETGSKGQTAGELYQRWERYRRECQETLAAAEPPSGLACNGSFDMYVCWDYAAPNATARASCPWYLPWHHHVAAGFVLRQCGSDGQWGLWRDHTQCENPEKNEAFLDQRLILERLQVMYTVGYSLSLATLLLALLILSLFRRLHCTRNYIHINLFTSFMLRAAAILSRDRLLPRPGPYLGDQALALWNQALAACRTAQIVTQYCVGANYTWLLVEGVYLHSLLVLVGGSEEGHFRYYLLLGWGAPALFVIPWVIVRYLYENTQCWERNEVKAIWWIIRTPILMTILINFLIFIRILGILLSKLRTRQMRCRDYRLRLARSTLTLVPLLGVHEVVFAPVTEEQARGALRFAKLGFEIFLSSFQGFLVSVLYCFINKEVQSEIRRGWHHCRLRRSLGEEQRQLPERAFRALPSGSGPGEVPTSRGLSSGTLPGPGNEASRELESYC
Experiment: cell-based or functional assay
Bridges are numbered along the chain shown (N, C = ends). Where no end group is shown, it is not given here. [ ]: non-standard residue; d: D form. The star is where a group is joined. Acetyl(2-(4-imidazolyl)) = O=C(Cc1c[nH]cn1)*; Aib = CC(C)(N)C(=O)O
ATTRIBUTE MEASURED: In vitro activity (%) vs. GIP, cAMP EC50
Numbers only here, please. The scale is %.

binder="Y[Aib]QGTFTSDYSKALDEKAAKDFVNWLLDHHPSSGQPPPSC (bridge 16-20; ends not checked) [triple agonist of SEQ ID NO: 99]" unit_of_measure=% value_measured=57.7
binder="{Acetyl(2-(4-imidazolyl))}-[Aib]QGTFTSDYSICMDEIHQKDFVNWLLNTK (bridge 15-19) [triple agonist of SEQ ID NO: 49]" unit_of_measure=% value_measured=3.3
binder="Y[Aib]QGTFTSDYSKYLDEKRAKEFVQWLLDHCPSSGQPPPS (bridge 16-20) [triple agonist of SEQ ID NO: 96]" unit_of_measure=% value_measured=5.2
binder="H[Aib]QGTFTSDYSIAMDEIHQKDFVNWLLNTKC (bridge 16-20) [triple agonist of SEQ ID NO: 35]" unit_of_measure=% value_measured=1.3
binder="Y[Aib]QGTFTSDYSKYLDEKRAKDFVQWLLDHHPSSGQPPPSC (bridge 16-20) [triple agonist of SEQ ID NO: 76]" unit_of_measure=% value_measured=11.7

// below: In vitro activity (%) vs. GIP, cAMP EC50 requested for another binder
Which measured In vitro activity (%) vs. GIP, cAMP EC50 value corresponds to [Acetyl(2-(4-imidazolyl))][Aib]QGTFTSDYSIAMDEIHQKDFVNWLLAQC (bridge 16-20) [triple agonist of SEQ ID NO: 85] ?
0.3
